Parameter IC50 of neutralisation of SARS-CoV-2 pseudovirus (293T_(ACE2) cells): see the listing below.
- Tested Target: SARS-CoV-2 receptor binding domain (RBD) (Severe acute respiratory syndrome …, UniProt P0DTC2)
- Assay Name: cell-based or functional assay
Measured Parameter: IC50 of neutralisation of SARS-CoV-2 pseudovirus (293T_(ACE2) cells)

[[record]]
binder = "C154 (antibody, V domains shown) VH: QVQLVESGGGVVQPGRSLRLSCAASGFTFSRYGMHWVRQAPGKGLEWVAVMSYDGSSKYYADSVKGRFTISRDNSKNTLCLQMNSLRAEDTAVYYCAKQAGPYCSGGSCYSAPFDYWGQGTLVTVSS VL: DIQMTQSPSSLSASVGDRVTITCQASQGISNYLNWYQQKPGKAPKLLIYDASNLETGVPSRFSGSGSGTDFTFTISSLQPEDIATYYCQQYDNLPITFGQGTRLEIK"
reported = "0.435 µg/mL"

[[record]]
binder = "C211 (antibody, V domains shown) VH: EVQLVESGGGLVQPGGSLRLSCAASEFTVSSNYMSWVRQAPGKGLEWVSVIYSGGSTFYADSVKGRFTISRDNSKNTLYLQMNSLRPEDTAVYYCARDYGDFYFDFWGQGTLVTVSS VL: EIVMTQSPATLSVSPGERATLSCRASQSVSSNLAWYQQKPGQGPRLLIYGASTRATGIPARFSGSGSGTEFTLTISSLQSEDFAVYYCQQYNNWPRTFGQGTKVEIK"
reported = "0.0128 µg/mL"

[[record]]
binder = "C119 (antibody, V domains shown) VH: QVQLVQSGAEVKKPGASVKVSCKASGYTFTSYYMHWVRQAPGQGLEWMGIINPSGGSTSYAQKLQGRVTMTRDTSTSTVYMELSSLRSEDTAVYYCARANHETTMDTYYYYYYMDVWGKGTTVTVSS VL: QSALTQPASVSGSPGQSITISCTGTSSDVGGYKYVSWYQRHPGKAPKLMIYDVSNRPSGVSNRFSGSKSGNTASLTISGLQAEDEADYYCSSYTSSSTSVVFGGGTQLTVL"
reported = "0.00912 µg/mL"

[[record]]
binder = "C124 (antibody, V domains shown) VH: EVQLVESGGGLVQPGGSLRLSCAASGFTFSGYSMNWVRQAPGKGPEWVSYISRSSSTIYYADSVKGRFTISRDNAKNSLYLQMNSLRDEDTAVYYCAREGARVGATYDTYYFDYWGQGTLVTVSS VL: EIVLTQSPATLSLSPGERATLSCRASQSFSSYLAWYQQKPGQAPRLLIYDASNRATGIPARFSGSGSGTDFTLTISSLEPEDFAVYYCQQRNNWPPEWTFGQGTKVEIK"
reported = "0.342 µg/mL"

[[record]]
binder = "C210 (antibody, V domains shown) VH: EVQLVESGGGLIQPGGSLRLSCAASGFTVSSNYMSWVRQAPGKGLEWVSVIYSGGSTFYADSVKGRFTFSRDNSKNTLYLQMNSLRAEDTAVYYCARDLMAYGMDVWGQGTTVTVSS VL: DIQLTQSPSFLSASVGDRVTITCRASQGISSYLAWYQQKPGKAPKLLIYAASTLQSGVPSRFSGSGSGTEFTLTISSLQPEDFATYYCQQLNSYPQGTFGGGTKVEIK"
reported = "0.0507 µg/mL"

